# Test system: HEL
# ASSAY EXPLANATION: Inhibition of HEL cell proliferation.
# Type: functional
# TEST PARAMETERS: Homo sapiens
Measured MIC50 of individual entries

// solved cases for MIC50 follow
compound=CN(C)C1(C23CC4CC(CC(C4)C2)C3)CCCC1 assay_value="50 µg/mL"
compound="CCCCN1CCCC1C12CC3CC(CC(C3)C1)C2 (stereo not drawn)" assay_value="> 50 µg/mL"

# input for lookup
Query: Report MIC50 for CC(C)(C)C1CCCN1CC12CC3CC(CC(C3)C1)C2 (stereo not drawn)
Response: > 50 µg/mL

###

# Test system: HeLa
# ASSAY EXPLANATION: Effects on cell morphology of HeLa cell lines.
# Type: functional
# TEST PARAMETERS: Homo sapiens
ASSAY READOUT: MIC50

// solved cases for MIC50 follow
compound="CN1CCCC1C12CC3CC(CC(C3)C1)C2 (configuration not stated)" assay_value="> 400 µg/mL"
compound="C1CNC(C23CC4CC(CC(C4)C2)C3)C1 (configuration not stated)" assay_value="> 200 µg/mL"
compound="C1COCC2(N1)C1CC3CC(C1)CC2C3 (configuration not stated)" assay_value="> 400 µg/mL"
compound=CC1(C)CCCN1CC12CC3CC(CC(C3)C1)C2 assay_value="> 400 µg/mL"

Query: Report MIC50 for CCN1CCCCC12C1CC3CC(C1)CC2C3 (configuration not stated)
Response: > 400 µg/mL

Query: Report MIC50 for CNC1(C23CC4CC(CC(C4)C2)C3)CCCC1
Response: > 100 µg/mL

Query: Report MIC50 for CN1CCCCC12C1CC3CC(C1)CC2C3 (configuration not stated)
Response: > 400 µg/mL

Reference source: ChEMBL document CHEMBL1129609
